# MEASURED_TARGET: HsHsp90 NBD E25D/K112R (Homo sapiens, UniProt P07900, E25D/K112R)
# METHOD_NOTES: FITC-GA competition, salt bridge double mutant HsHsp90 NBD
Listing of entries alongside the reported Ki.
The reply should contain only the number, in nM.

| COMPOUND | MEASURED_TARGET | U | DATA_VALUE |
| --- | --- | --- | --- |
| CC[C@@H](C)Nc1cc(C(=O)NC2C[C@H]3CC[C@@H](C2)N3c2ccc(C(=O)C3CC3)cn2)c(C)cc1C(N)=O (some centres unmarked) | HsHsp90 NBD E25D/K112R (Homo sapiens, UniProt P07900, E25D/K112R) | nM | 9.6 |

# input Value lookup for Ki; key = CCOC(=O)NCc1ccc(-n2c(-c3cc(C(C)C)c(O)cc3O)n[nH]c2=S)cc1
# output 13

###

# MEASURED_TARGET: PfHsp90 (Plasmodium falciparum)
MEASURED_PROPERTY: pKi
Remember, pKi is on a log scale: it is -log10 of the molar concentration.

| MOLECULE | DATA_VALUE |
| --- | --- |
| CC[C@@H](C)Nc1cc(C(=O)NC2C[C@H]3CC[C@@H](C2)N3c2ccc(C(=O)C3CC3)cn2)c(C)cc1C(N)=O (some centres unmarked) | 7.57 |

Consider the additional molecule presented here.
# input Value lookup for pKi; key = CCOC(=O)NCc1ccc(-n2c(-c3cc(C(C)C)c(O)cc3O)n[nH]c2=S)cc1
# output 7.62

###

# System: P. falciparum 3D7
# METHOD_NOTES: Asexual blood stage parasite inhibition assay
# Type: cell-based
# STUDY_CONDITIONS: Plasmodium falciparum, 3D7, 72 h, read-out: EC50, blood stage P. falciparum 3D7
MEASURED_PROPERTY: pEC50
Remember, pEC50 is on a log scale: it is -log10 of the molar concentration.

| COMPOUND | pEC50 |
| --- | --- |
| CCOC(=O)NCc1ccc(-n2c(-c3cc(C(C)C)c(O)cc3O)n[nH]c2=S)cc1 | 6.13 |

Consider the additional compound presented here.
# input Value lookup for pEC50; key = CC[C@@H](C)Nc1cc(C(=O)NC2C[C@H]3CC[C@@H](C2)N3c2ccc(C(=O)C3CC3)cn2)c(C)cc1C(N)=O (some centres unmarked)
# output 6.48

###

# MEASURED_TARGET: wild-type (WT) HsHsp90 nucleotide-binding domain (NBD) (Homo sapiens, UniProt P07900)
# METHOD_NOTES: FITC-GA competition, wild-type HsHsp90 nucleotide-binding domain
MEASURED_PROPERTY: pKi
Remember, pKi is on a log scale: it is -log10 of the molar concentration.

| COMPOUND | pKi |
| --- | --- |
| CC[C@@H](C)Nc1cc(C(=O)NC2C[C@H]3CC[C@@H](C2)N3c2ccc(C(=O)C3CC3)cn2)c(C)cc1C(N)=O (some centres unmarked) | 7.17 |

Consider the additional compound presented here.
# input Request body: readout pKi, system wild-type (WT) HsHsp90 nucleotide-binding domain (NBD) (Homo sapiens, UniProt P07900), query CCOC(=O)NCc1ccc(-n2c(-c3cc(C(C)C)c(O)cc3O)n[nH]c2=S)cc1 . Return the value.
# output 7.72
